system: phospho-akt (Thr308) in PC-3 cells; test: Inhibition of phospho-akt (Thr308) in PC-3 cells, MSD phospho-akt 308 ELISA kit; format: cell-based; details: Homo sapiens; inhibition of P308 Akt in PC-3 cells using MSD, 2 hours, no serum; read-out: EC50
experimentalEndpoint: EC50

[[record]]
molecule = "C[C@H](NC(=O)c1nc(C#N)cnc1NCc1ccc(-c2cnc(N)c(CCC(C)(C)N)n2)cc1)c1ccc(F)c(F)c1 [Example 84]"
experimentalendpoint = "EC50"
result = "< 1 µM"

[[record]]
molecule = "C[C@H](NC(=O)c1nccnc1NCc1ccc(-c2ccc(N)nc2)cc1)c1ccc(F)cc1 [Example 371]"
experimentalendpoint = "EC50"
result = "> 10 µM"

[[record]]
molecule = "C[C@H](NC(=O)c1cc(C#N)cnc1N[C@H](C)c1ccc(-c2cnc3[nH]nc(N)c3c2)nc1)c1ccc(F)cc1 [Example 416]"
experimentalendpoint = "EC50"
result = "< 1 µM"


Data request: Can you look up the measured EC50 of C[C@H](NC(=O)c1cc(C#N)cnc1NCc1ccc(-c2n[nH]c3ncnc(N)c23)cc1)c1ccc(F)cc1 [Example 96] for me?
Data returned: 1 to 10 µM

Data request: I would be grateful if you could share the reported EC50 for Cn1cnc2cnc3ccc(-c4ccc(CNc5ncccc5C(=O)NCc5cncc(F)c5)s4)cc3c21 [Example 354] .
Data returned: < 1 µM

Data request: Give the measured EC50 of Nc1n[nH]c2ncc(-c3ccc(CNc4ncc(C(F)(F)F)cc4C(=O)NCc4ccc(F)c(F)c4)cc3)cc12 [Example 132] .
Data returned: < 1 µM

Data request: Which value of EC50 has been reported for Nc1n[nH]c2ncc(-c3ccc(CNc4ncc(C(F)(F)F)cc4C(=O)NC4CC4)cc3)cc12 [Example 260] in the records?
Data returned: 1 to 10 µM
